Overview of reported melting point across a group of compounds:

Some solved entries appear below for comparison.
- compound: "COc1ccc(CCNc2cc(C3CCC3)nc3ncnn23)cc1 [Compound 23]"
  melting point: "99 to 100 °C"
- compound: "COc1ccc(CCNc2cc(C3CCCCC3)nc3ncnn23)cc1 [Compound 25]"
  melting point: "193 to 194 °C"
- compound: "CCc1cc(NCCc2ccc(OC)cc2)n2ncnc2n1 [Compound 21]"
  melting point: "70 to 72 °C"
- compound: "COc1ccc(CCNc2cc(-c3ccc(F)cc3)nc3ncnn23)cc1 [Compound 13]"
  melting point: "153 to 155 °C"
- compound: "COc1ccc(CCNc2cc(Cc3ccccc3)nc3ncnn23)cc1 [Compound 19]"
  melting point: "119 to 121 °C"
- compound: "c1ccc(-c2cc(NC3CCC3)n3ncnc3n2)cc1 [Compound 35]"
  melting point: "193 to 194 °C"
- compound: "c1ccc(-c2cc(NCCC3CCCCC3)n3ncnc3n2)cc1 [Compound 36]"
  melting point: "168 to 169 °C"
- compound: "Fc1ccc(CCNc2cc(-c3ccccc3)nc3ncnn23)cc1 [Compound 46]"
  melting point: "169 to 170 °C"

Need melting point of COc1ccc(CCNc2cc(C3CCCC3)nc3ncnn23)cc1 [Compound 24] , thanks.
99 to 100 °C

Any idea what its melting point is? The compound is FC(F)(F)c1ccc(CCNc2cc(-c3ccccc3)nc3ncnn23)cc1 [Compound 47]
183 to 184 °C

Which melting point is listed for CCCNc1cc(-c2ccccc2)nc2ncnn12 [Compound 31] ?
139 to 140 °C

// returns reported melting point for input c1ccc(-c2ccn3ncnc3n2)cc1 [Compound 27]
179 to 181 °C

What value of measured melting point is listed for c1ccc(-c2cc(NCCc3ccncc3)n3ncnc3n2)cc1 [Compound 43] ?
231 to 233 °C

Request the reported melting point associated with COc1ccc(CCNc2cc(-c3ccc(Cl)cc3)nc3ncnn23)cc1 [Compound 11]
178 to 180 °C

Requested field: melting point. Item: Fc1ccc(CCNc2cc(-c3ccccn3)nc3ncnn23)cc1 [Compound 57]
190 to 192 °C

Report melting point for Cc1ccc(CCNc2cc(-c3ccccn3)nc3ncnn23)cc1 [Compound 55] please.
194 to 196 °C

Find the recorded melting point belonging to COc1ccc(C2CCN(c3cc(-c4ccccn4)nc4ncnn34)C2)cc1 (stereo not drawn) [Compound 62] and report it.
222 to 223 °C

Item COc1ccc(CCNc2cc(-c3ccccn3)nc3nc(-c4ccccc4)nn23)cc1 [Compound 68] has what recorded melting point?
146 to 148 °C

Requested read-out: melting point. Entry: c1ccc(-c2cc(NCCc3ccccn3)n3ncnc3n2)cc1 [Compound 41]
111 to 114 °C

Entry COc1ccc(CCNc2cc(-c3ccccn3)nc3ncnn23)cc1 [Compound 16] : reported melting point = ?
172 to 173 °C

Param item = COc1ccc(CCN(C)c2cc(-c3ccccc3)nc3ncnn23)cc1 [Compound 61] ; retrieve measured melting point.
170 to 171 °C

Return reported melting point; argument: COc1ccc(CCNc2cc(-c3ccncc3)nc3ncnn23)cc1 [Compound 18]
217 to 219 °C

Request the reported melting point associated with c1ccc(-c2cc(NCCc3cccnc3)n3ncnc3n2)cc1 [Compound 42]
169 to 171 °C
